Answer each item with its documented EC50.
Molecular target: human CB2 receptors (Homo sapiens (Human), UniProt P34972)
Sequence (P34972 whole entry): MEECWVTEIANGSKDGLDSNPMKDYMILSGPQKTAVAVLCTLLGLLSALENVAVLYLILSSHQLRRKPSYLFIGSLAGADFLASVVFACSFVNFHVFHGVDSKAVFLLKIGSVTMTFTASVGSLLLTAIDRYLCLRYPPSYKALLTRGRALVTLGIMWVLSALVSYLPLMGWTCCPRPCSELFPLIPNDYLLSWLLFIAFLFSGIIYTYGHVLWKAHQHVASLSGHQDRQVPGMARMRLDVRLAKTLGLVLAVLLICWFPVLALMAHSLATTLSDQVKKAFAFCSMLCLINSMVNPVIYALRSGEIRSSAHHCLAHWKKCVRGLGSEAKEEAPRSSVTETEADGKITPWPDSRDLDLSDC
Assay: cAMP assay, CHO cells expressing human CB2 receptors
Details: functional cAMP assay, read-out: CB2 hcAMP EC50
Write the answer as a number in µM, unit excluded.

What does the record list as EC50 for Cn1nccc1-c1nc(C(C)(C)C)nc2c1nnn2CC(O)CC(F)(F)F (stereo not shown) ?
0.0424

Entry Cc1oncc1-c1nc(C(C)(C)C)nc2c1nnn2Cc1nnnn1C : reported EC50 = ?
0.515

# input compound: Cn1nccc1-c1nc(C(C)(C)C)nc2c1nnn2Cc1ccccc1S(C)(=O)=O ; wanted: its EC50
0.003

# query: EC50 of entry Cn1nccc1-c1nc(C(C)(C)C)nc2c1nnn2Cc1nnnn1C
0.0333

May I ask what EC50 has been recorded for Cn1nccc1-c1nc(C(C)(C)C)nc2c1nnn2CC1(C)COC1 ?
0.445

Would you mind telling me what EC50 value was observed for CC(C)(C)c1nc(C2(O)CCCCC2)c2nnn(Cc3ccccc3Cl)c2n1 ?
0.172

Dear colleague, I am looking for the recorded EC50 of the following compound: CC(C)(C)c1nc(C2(O)CCCCCC2)c2nnn(Cc3ccccc3Cl)c2n1
0.0173

Would you kindly share the measured EC50 for Cn1nccc1-c1nc(C(C)(C)C)nc2c1nnn2C1CCOC1 (stereo not shown) ?
0.086

Requested read-out: EC50. Entry: CC(C)(C)c1nc(-c2ccccc2)c2nnn(Cc3ccccc3Cl)c2n1
0.0802

Consider the compound CC(C)(C)c1nc(-c2ccc(F)cc2)c2nnn(Cc3ccccc3Cl)c2n1 and give its measured EC50.
0.0285

Requested read-out: EC50. Entry: CC(C)(C)c1nc(-c2ccc(F)nc2)c2nnn(Cc3ccccc3Cl)c2n1
0.0027

Can you share its EC50? I mean this compound: CC(C)(C)c1nc(C2CCCC2)c2nnn(Cc3ccccc3Cl)c2n1 [Example 45a]
0.0944

Dear colleague, I am looking for the recorded EC50 of the following compound: Cn1nnnc1Cn1nnc2c(-c3cc[nH]n3)nc(C(C)(C)C)nc21
0.578

Can you share its EC50? I mean this compound: Cn1nccc1-c1nc(C(C)(C)C)nc2c1nnn2Cc1ccccc1Cl
0.0443

Which measured EC50 value corresponds to Cn1nccc1-c1nc(C(C)(C)C)nc2c1nnn2C[C@H](O)C(F)(F)F ?
0.0772

For the compound Cn1nnnc1Cn1nnc2c(-c3cn[nH]c3)nc(C(C)(C)C)nc21 , what EC50 is on record?
0.032

Returns the measured EC50 for the input compound. Input: Cn1cc(-c2nc(C(C)(C)C)nc3c2nnn3Cc2ccccc2Cl)cn1
0.0174

GET /values?readout=EC50&item= CC(C)(C)c1nc(C2(O)CCC2)c2nnn(Cc3ccccc3)c2n1
0.0045

Using the record for Cc1oncc1-c1nc(C(C)(C)C)nc2c1nnn2Cc1ccccc1Cl , report its EC50.
0.0765

###

Please provide measured EC50 for the entries that follow.
Biological target: human CB2 receptors (Homo sapiens (Human), UniProt P34972)
Assay: cAMP assay, CHO cells expressing human CB2 receptors
Settings: functional cAMP assay, read-out: CB2 hcAMP EC50
// note: answer is a bare numeric in nM

Look at this compound and give its reported EC50. CC(C)(C)c1nc2c(nnn2Cc2ccccc2Cl)c([C@]2(O)C[C@@H](C(F)F)C2)n1 [Example 41]
30.5

For the compound shown here, Cn1nnnc1Cn1nnc2c(-c3ncc[nH]3)nc(C(C)(C)C)nc21 [Example 28] , give the reported EC50.
12.5

Given the compound Cc1ccc(-c2nc(C(C)(C)C)nc3c2nnn3Cc2ccccc2Cl)nc1 [Example 7] , what is its reported EC50?
488

Item Cc1ccc(-c2nc(C(C)(C)C)nc3c2nnn3Cc2ccccc2Cl)cc1 [Example 1] has what recorded EC50?
206

Look up EC50 for this compound: CC(C)(C)c1nc(C2(O)CSC2)c2nnn(Cc3ccccc3Cl)c2n1 [Example 39]
168

###

Biological target: UniProtKB P34972
Assay: cAMP assay, CHO cells expressing human CB2 receptors
Details: functional cAMP assay, read-out: CB2 hcAMP EC50
Doc: threshold 40 nM (exclusive). Items with EC50 beneath it return Fulfilled; others return Not fulfilled.

Decide: EC50 of COc1ccc(-c2nc(C(C)(C)C)nc3c2nnn3Cc2ccccc2Cl)cc1 [Example 3] strictly below 40 nM?
Not fulfilled

Is 40 nM strictly greater than the molecule's reported EC50? molecule: CC(C)(C)c1nc(C2(O)CCCC2)c2nnn(Cc3ccccc3Cl)c2n1 [Example 34]
Fulfilled

Quick check: EC50 of CC(C)(C)c1nc(-c2ccccc2F)c2nnn(Cc3ccccc3Cl)c2n1 [Example 4] under 40 nM?
Not fulfilled

Is 40 nM strictly greater than the molecule's reported EC50? molecule: CC(C)(C)c1nc2c(nnn2Cc2ccccc2Cl)c([C@]2(O)C[C@H](C(F)F)C2)n1 [Example 40]
Fulfilled

Determine whether this molecule shows EC50 lower than 40 nM (ties excluded): CC(C)(C)c1nc(C2(O)CCCCCCC2)c2nnn(Cc3ccccc3Cl)c2n1 [Example 37]
Not fulfilled

Consider the molecule CC(C)(C)c1nc(C2CCCC2)c2nnn(Cc3ccccc3)c2n1 [Example 45b] . Is its EC50 strictly less than 40 nM?
Fulfilled

###

Biological target: human CB1 receptors (Homo sapiens (Human))
Sequence (P21554 whole entry): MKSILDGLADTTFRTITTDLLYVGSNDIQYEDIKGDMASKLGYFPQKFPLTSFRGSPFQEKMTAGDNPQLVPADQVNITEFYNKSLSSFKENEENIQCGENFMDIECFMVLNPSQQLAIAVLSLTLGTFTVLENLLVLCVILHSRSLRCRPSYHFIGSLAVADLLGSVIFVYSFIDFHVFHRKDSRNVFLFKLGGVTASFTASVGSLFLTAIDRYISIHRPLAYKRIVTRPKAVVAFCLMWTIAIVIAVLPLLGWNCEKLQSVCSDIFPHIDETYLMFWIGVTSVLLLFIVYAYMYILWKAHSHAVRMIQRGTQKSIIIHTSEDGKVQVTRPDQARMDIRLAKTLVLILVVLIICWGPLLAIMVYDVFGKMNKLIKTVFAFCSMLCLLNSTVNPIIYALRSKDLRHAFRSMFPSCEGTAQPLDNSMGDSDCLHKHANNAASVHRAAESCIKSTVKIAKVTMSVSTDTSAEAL
Assay: cAMP assay, CHO cells expressing human CB1 receptors
Format: cell-based
QUANTITY MEASURED: EC50

Using the record for CC(C)(C)c1nc(C2(O)CCCCCCC2)c2nnn(Cc3ccccc3Cl)c2n1 [Example 37] , report its EC50.
> 10 µM

###

Target: human CB2 receptors (Homo sapiens (Human))
Test: cAMP assay, CHO cells expressing human CB2 receptors
Details: functional cAMP assay, read-out: CB2 hcAMP EC50
pEC50: −log10 of the molar value.
Param threshold (7) applies to pEC50; output class 1 when value >= threshold, class 0 when value < threshold.

Decide: is the reported value of pEC50 for Cn1nccc1-c1nc(C(C)(C)C)nc2c1nnn2C1COC1 [Example 19] equal to or greater than 7?
class 0

Would you say Cn1nnnc1Cn1nnc2c(-c3cnnn3Cc3ccccc3)nc(C(C)(C)C)nc21 [Example 29] shows pEC50 at minimum 7?
class 1

# bool: pEC50 of Cn1nccc1-c1nc(C(C)(C)C)nc2c1nnn2CC(C)(C)O [Example 22] >= 7
class 0

I'd appreciate it if you could say whether CCC(O)(CC)c1nc(C(C)(C)C)nc2c1nnn2Cc1ccccc1Cl [Example 38] has pEC50 at least equal to 7.
class 1

Exam item: decide whether the reported pEC50 for Cc1nonc1Cn1nnc2c(-c3ccnn3C)nc(C(C)(C)C)nc21 [Example 14] is at least 7.
class 1

###

Biological target: human CB2 receptors (Homo sapiens (Human), UniProt P34972)
Test: cAMP assay, CHO cells expressing human CB2 receptors
Details: functional cAMP assay, read-out: CB2 hcAMP EC50
Could you please report measured EC50 for the items listed next?

Quick one: EC50 for CC(C)(C)c1nc(C2(F)CCC2)c2nnn(Cc3ccccc3)c2n1 [Example 32] ?
24 nM

Fill blank: measured EC50 of the molecule CC(C)(C)c1nc(C2(CF)CC2)c2nnn(Cc3ccccc3Cl)c2n1 [Example 43] is ____.
903 nM

Field request: EC50 | item: Cc1nnc(Cn2nnc3c(-c4ccnn4C)nc(C(C)(C)C)nc32)o1 [Example 15]
317 nM

Value lookup for EC50; key = CC(C)(C)c1nc(-c2ccc(Cl)cc2F)c2nnn(Cc3ccccc3Cl)c2n1 [Example 5]
88.2 nM

Entry Cn1nccc1-c1nc(C(C)(C)C)nc2c1nnn2Cc1ncccc1Cl [Example 21] : reported EC50 = ?
39.5 nM

Requested read-out: EC50. Entry: Cn1cc(-c2nc(C(C)(C)C)nc3c2nnn3Cc2nnnn2C)cn1 [Example 24]
156 nM

Record request: EC50 value, item CC(C)(C)c1nc(C2(O)CCC2)c2nnn(Cc3ccccc3Cl)c2n1 [Example 33]
233 nM

EC50 for CC(C)(C)c1nc(C2=CCCC2)c2nnn(Cc3ccccc3Cl)c2n1 [Example 44] ?
4 nM

Param item = CC(C)(C)c1nc(C2(O)C[S+]([O-])C2)c2nnn(Cc3ccccc3Cl)c2n1 (stereo not drawn) [Example 42] ; retrieve measured EC50.
110 nM
